The reported measurements were obtained from patent US20240150466A1.

# target of assay: T1, mouse IGFBP7 recombinant protein (mouse, UniProt Q61581 26-281, biotinylated with EZ-LINK NHS-PEG4 biotin in the BLI assays (sites not given))
# T1 chain: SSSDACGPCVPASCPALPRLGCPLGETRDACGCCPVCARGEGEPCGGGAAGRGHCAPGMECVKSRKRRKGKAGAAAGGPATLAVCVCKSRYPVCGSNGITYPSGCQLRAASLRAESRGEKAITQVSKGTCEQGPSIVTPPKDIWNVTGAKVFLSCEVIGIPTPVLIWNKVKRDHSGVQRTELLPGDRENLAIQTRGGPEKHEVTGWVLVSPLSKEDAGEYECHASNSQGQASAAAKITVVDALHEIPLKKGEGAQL
# assay info: BLI
result type: Kd (nM)

binder	reported result
D4-mIgG2a nanobody Fc-fusion (Fc fusion, VHH fused with mIgG2a Fc fragment, expressed in Expi293 cells; also called monospecific D4-mIgG2a; not shown: mouse IgG2a Fc fragment (mIgG2a Fc)) VQLQESGGGLVQTGGSLRLSCAASGRSFTFSSYAMGWFRHAPGKEREFLTAITWSGDYTYYTDSVKGRSTISRDNAKNTVYLQLNNLKPEDTAVYYCAAKFSQVSAFFATVSEYEYWGQGTQVTVSS	10.2
bispecific anti-IGFBP7 nanobody Fc-fusion construct A1-mIgG2a-D4 (bispecific antibody, V domains shown, also called A1-mIgG2a-D4-2; not shown: mouse IgG2a Fc fragment (mIgG2a Fc)) V domain 1: VQLQESGGGLVQAGGSLRLSCAASGSLFAIDKWGWYRQVAGNERELVAWRYSPVSINYGDSVKGRFTVSGDSSRKRVYLQMNSLKPDDTAVYRCAAVISGAWYWGQGTQVTVSS V domain 2: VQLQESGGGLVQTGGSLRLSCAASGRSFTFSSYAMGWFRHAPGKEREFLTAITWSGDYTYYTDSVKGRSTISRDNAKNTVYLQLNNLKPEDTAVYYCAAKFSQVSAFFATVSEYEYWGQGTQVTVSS	1.74
